B1: ZNF193 (parent)
chain: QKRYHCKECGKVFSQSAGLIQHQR

- Variants of: B1
- assay.remarks: protein stability index of a GFP-peptide fusion (GPS, HEK-293T) (PSI 1-6); higher = more stable;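 further: lentivirally expressed fusions sorted by FACS into six bins by GFP to DsRed ratio, PSI derived from sequencing read proportions per bin multiplied by bin number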
- test.parameters: c terminus: a fixed tail appended
Assign protein stability index to each entry below.

protein stability index in this record for QKRYHCKECGKVFSFSAGLIQHQR [Q15F] : 2.28

Record summary for QKRYHCKECGKVFSQSAGLIQHQL [R24L] : reported protein stability index = 1.43

// sample QKYYHCKECGKVFSQSAGLIQHQR [R3Y] , its protein stability index was 3.52

Form field protein stability index, entry QKRYHCKECGKVFSQSAGLIQMQR [H22M] : 1.84

// sample QKRYHCKECGKVWSQSAGLIQHQR [F13W] , its protein stability index was 2.03

Record QKRYHTKECGKVFSQSAGLIQHQR [C6T] , field protein stability index: 2.83

Entry QKRYWCKECGKVFSQSAGLIQHQR [H5W] — recorded protein stability index = 2.98

The recorded protein stability index for QKRYHCKECGKVFSPSAGLIQHQR [Q15P] is 1.58

# variant QKRYHCPECGKVFSQSAGLIQHQR [K7P] ; its protein stability index = 3.33

Measured protein stability index of QKRYHCKECGKVFIQSAGLIQHQR [S14I] : 2.64

// protein stability index value for QKREHCKECGKVFSQSAGLIQHQR [Y4E] : 2.15

Entry QKRYHCKMCGKVFSQSAGLIQHQR [E8M] — recorded protein stability index = 2.6

Looking up QKRYHCKECGKVFSQSAGLIQHQE [R24E] , I see its protein stability index listed as 3.53

The value of protein stability index measured for the variant TKRYHCKECGKVFSQSAGLIQHQR [Q1T] turned out to be 2.98

// protein stability index lookup, variant = QKRYHCKECGKVFSQSAGIIQHQR [L19I] , result: 2.2

The variant listed as QDRYHCKECGKVFSQSAGLIQHQR [K2D] has a reported protein stability index of 3.31

get_value(item= QCRYHCKECGKVFSQSAGLIQHQR [K2C] , readout=protein stability index) returns 2.39

Item: QKSYHCKECGKVFSQSAGLIQHQR [R3S] | protein stability index: 3.12

Field protein stability index (entry QKRYHCKECGKHFSQSAGLIQHQR [V12H] ) reads 2.82

# protein stability index (variant: QKRYHCKECGKVFSQSAGLHQHQR [I20H] ) is 3.31

The value of protein stability index measured for the variant QKRYHCKECGKVFGQSAGLIQHQR [S14G] turned out to be 2.54

Summary for this variant, QKRYHCKECGKVFSQSAILIQHQR [G18I] : protein stability index is 2.4

Summary for this variant, RKRYHCKECGKVFSQSAGLIQHQR [Q1R] : protein stability index is 3.19

Input QVRYHCKECGKVFSQSAGLIQHQR [K2V] . Output protein stability index: 2.58

Please fill in: protein stability index reported for QKRYHCKECGKVFSQSGGLIQHQR [A17G] = 2.54

Record QKRYHCKECGKVFSQSAMLIQHQR [G18M] . Reported protein stability index: 2.06

protein stability index recorded for this variant, QKRYHCKECGKVFSQSAGLIQHWR [Q23W] , is 1.97

The variant listed as QKFYHCKECGKVFSQSAGLIQHQR [R3F] has a reported protein stability index of 3.6

QHRYHCKECGKVFSQSAGLIQHQR [K2H] has a reported protein stability index of 3.06

So, QKRYHCKECHKVFSQSAGLIQHQR [G10H] ? Its protein stability index was 1.84

Looking up QSRYHCKECGKVFSQSAGLIQHQR [K2S] , I see its protein stability index listed as 2.48

# variant QKRYHRKECGKVFSQSAGLIQHQR [C6R] ; its protein stability index = 2.6

For reference, reported protein stability index for QMRYHCKECGKVFSQSAGLIQHQR [K2M] stands at 3.1

Looking up QKRYHCKECGKVFSQSAGYIQHQR [L19Y] , I see its protein stability index listed as 2.42

Recorded protein stability index (variant QKRYHCKECGKVFSQSAGNIQHQR [L19N] ): 2.56

For reference, reported protein stability index for QKRYHCKECGKVFSQSAGQIQHQR [L19Q] stands at 2.45

Lab book: protein stability index of QKRYHCKECGKVFSQSAGLIFHQR [Q21F] noted as 1.91

Recorded result, QKRYHCKECGKVFSQSFGLIQHQR [A17F] , protein stability index: 2.27

Measured protein stability index of QKRYHCKCCGKVFSQSAGLIQHQR [E8C] : 4.26

QKRYHCKECGKVFSQSQGLIQHQR [A17Q] yielded protein stability index of 2.76

Documented protein stability index of QKRYHCKWCGKVFSQSAGLIQHQR [E8W] : 2.71

Quick note, protein stability index for QKRYHCWECGKVFSQSAGLIQHQR [K7W] landed at 2.49

Recorded result, QKKYHCKECGKVFSQSAGLIQHQR [R3K] , protein stability index: 3.23

The variant listed as QKRYHVKECGKVFSQSAGLIQHQR [C6V] has a reported protein stability index of 2.8

Reported protein stability index for QKRYHCKECGKVFSQSAGWIQHQR [L19W] was 2.41

Lookup result for QKRYHCKECGKVFSQSAQLIQHQR [G18Q] ; measured protein stability index: 3.55
